- target: human TRPA1 (Homo sapiens (Human))
- Sequence (O75762 whole entry): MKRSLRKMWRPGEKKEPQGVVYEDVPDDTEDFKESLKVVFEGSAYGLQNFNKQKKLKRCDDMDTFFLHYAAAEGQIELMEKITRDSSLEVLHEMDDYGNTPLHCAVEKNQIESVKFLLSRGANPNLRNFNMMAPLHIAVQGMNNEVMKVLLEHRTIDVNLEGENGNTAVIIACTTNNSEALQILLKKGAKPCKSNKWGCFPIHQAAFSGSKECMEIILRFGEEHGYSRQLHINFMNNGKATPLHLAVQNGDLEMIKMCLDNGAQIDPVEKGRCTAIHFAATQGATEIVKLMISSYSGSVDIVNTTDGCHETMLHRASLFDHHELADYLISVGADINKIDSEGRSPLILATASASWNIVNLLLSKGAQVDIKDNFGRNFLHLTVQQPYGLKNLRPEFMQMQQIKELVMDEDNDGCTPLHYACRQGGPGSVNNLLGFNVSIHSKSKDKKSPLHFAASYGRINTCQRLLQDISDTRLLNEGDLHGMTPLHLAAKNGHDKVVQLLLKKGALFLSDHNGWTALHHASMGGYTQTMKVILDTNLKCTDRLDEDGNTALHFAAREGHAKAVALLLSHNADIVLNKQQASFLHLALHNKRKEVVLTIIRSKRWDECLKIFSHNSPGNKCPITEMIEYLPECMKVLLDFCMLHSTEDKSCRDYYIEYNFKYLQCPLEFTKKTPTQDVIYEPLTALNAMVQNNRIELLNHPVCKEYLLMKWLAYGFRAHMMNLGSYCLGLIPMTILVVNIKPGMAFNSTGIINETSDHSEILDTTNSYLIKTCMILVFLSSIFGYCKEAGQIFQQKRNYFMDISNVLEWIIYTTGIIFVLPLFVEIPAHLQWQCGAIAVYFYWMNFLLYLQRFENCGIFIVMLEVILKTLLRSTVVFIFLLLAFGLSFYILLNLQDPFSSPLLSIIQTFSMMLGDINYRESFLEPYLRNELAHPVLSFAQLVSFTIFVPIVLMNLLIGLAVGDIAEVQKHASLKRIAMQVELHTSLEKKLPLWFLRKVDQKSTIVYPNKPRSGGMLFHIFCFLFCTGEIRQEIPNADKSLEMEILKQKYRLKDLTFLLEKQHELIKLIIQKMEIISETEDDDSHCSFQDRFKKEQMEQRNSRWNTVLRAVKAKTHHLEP
- procedure-details: 45Calcium uptake assay, AITC induced, human TRPA1 expressing CHO cells
- Format: cell-based
- run-parameters: AITC 30 micromolar, read-out: IC50 values hTRPA1
reported-property: IC50 (nM)

chem-smiles | target | reported-property | reported-value
CC(C)c1sc2c(c1CC(=O)Nc1nc(-c3ccc(C(F)(F)F)c(F)c3)cs1)c(=O)n(C)c(=O)n2C | human TRPA1 (Homo sapiens (Human)) | IC50 | 41.3
Cn1c(=O)c2c(CC(=O)Nc3nc(-c4ccc(F)c(Cl)c4)cs3)cccc2n(C)c1=O | human TRPA1 (Homo sapiens (Human)) | IC50 | 53.6
Cn1c(=O)c2c(ccn2CC(=O)Nc2nc(-c3ccc(C(F)(F)F)c(F)c3)cs2)n(C)c1=O | human TRPA1 (Homo sapiens (Human)) | IC50 | 49.9
Cn1c(=O)c2c(CC(=O)Nc3nc(-c4cccc(Cl)c4)cs3)cccc2n(C)c1=O | human TRPA1 (Homo sapiens (Human)) | IC50 | 102
